Target: CYP3A4 supersomes (Homo sapiens, UniProt P08684)
Construct: purchased BD Gentest
Sequence (P08684 whole entry): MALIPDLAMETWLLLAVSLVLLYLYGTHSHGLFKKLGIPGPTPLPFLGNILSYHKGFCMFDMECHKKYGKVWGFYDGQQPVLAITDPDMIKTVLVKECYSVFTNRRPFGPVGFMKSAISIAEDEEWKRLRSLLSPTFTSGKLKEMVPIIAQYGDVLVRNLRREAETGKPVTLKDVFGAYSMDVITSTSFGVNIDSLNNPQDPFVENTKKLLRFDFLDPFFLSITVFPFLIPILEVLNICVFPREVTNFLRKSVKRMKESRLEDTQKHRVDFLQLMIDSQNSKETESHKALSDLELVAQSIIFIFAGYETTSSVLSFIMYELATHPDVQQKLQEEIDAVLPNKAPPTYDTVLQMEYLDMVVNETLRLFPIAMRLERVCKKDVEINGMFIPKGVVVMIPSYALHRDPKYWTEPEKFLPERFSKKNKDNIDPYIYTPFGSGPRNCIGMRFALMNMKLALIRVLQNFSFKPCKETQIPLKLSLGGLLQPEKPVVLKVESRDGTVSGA
Experiment: Metabolic stability in CYP3A4 Supersomes
Format: in vitro ADME
Settings: [(deuterated species) − (nondeuterated species)](100)/(nondeuterated species), of Ave t1/2 vs bosentan
QUANTITY_NAME: % Difference (%)

Some entries whose results are on file:
>  <STRUCTURE>
[2H]C([2H])([2H])Oc1ccccc1Oc1c(NS(=O)(=O)c2ccc(C(C([2H])([2H])[2H])(C([2H])([2H])[2H])C([2H])([2H])[2H])cc2)nc(-c2ncccn2)nc1OCCO

>  <RESULT>
15.1

$$$$
>  <STRUCTURE>
[2H]C([2H])(O)COc1nc(-c2ncccn2)nc(NS(=O)(=O)c2ccc(C(C([2H])([2H])[2H])(C([2H])([2H])[2H])C([2H])([2H])[2H])cc2)c1Oc1ccccc1OC([2H])([2H])[2H]

>  <RESULT>
54.2

$$$$

I = [2H]C([2H])(O)COc1nc(-c2ncccn2)nc(NS(=O)(=O)c2ccc(C(C)(C)C)cc2)c1Oc1ccccc1OC
II = [2H]C([2H])([2H])Oc1ccccc1Oc1c(NS(=O)(=O)c2ccc(C(C)(C)C)cc2)nc(-c2ncccn2)nc1OCCO
III = [2H]C([2H])([2H])C(c1ccc(S(=O)(=O)Nc2nc(-c3ncccn3)nc(OCCO)c2Oc2ccccc2OC)cc1)(C([2H])([2H])[2H])C([2H])([2H])[2H]
Input: Output the entries ranked by % Difference from maximum down to minimum. # format: label list in the order the request specifies
Output: II, III, I

* * *

Target: CYP3A4 (Homo sapiens, UniProt P08684)
Construct: purchased BD Gentest
Assay: Metabolic stability in CYP3A4 Supersomes
Format: in vitro ADME
Details: human, recombinant CYP3A4 Supersomes, pH 7.4, average of Experiments 1 and 2; CYP3A4 supersomes, 1 μM test compound; read-out: Ave t1/2
QUANTITY_NAME: half-life at 1 μM (min)

Some entries whose results are on file:
>  <COMPOUND>
[2H]C([2H])([2H])Oc1ccccc1Oc1c(NS(=O)(=O)c2ccc(C(C([2H])([2H])[2H])(C([2H])([2H])[2H])C([2H])([2H])[2H])cc2)nc(-c2ncccn2)nc1OCCO [Compound 101]

>  <ENDPOINT_UNIT>
min

>  <half-life at 1 μM>
41.2

$$$$
>  <COMPOUND>
[2H]C([2H])(O)COc1nc(-c2ncccn2)nc(NS(=O)(=O)c2ccc(C(C([2H])([2H])[2H])(C([2H])([2H])[2H])C([2H])([2H])[2H])cc2)c1Oc1ccccc1OC([2H])([2H])[2H] [Compound 106]

>  <ENDPOINT_UNIT>
min

>  <half-life at 1 μM>
55.2

$$$$
>  <COMPOUND>
[2H]C([2H])([2H])C(c1ccc(S(=O)(=O)Nc2nc(-c3ncccn3)nc(OCCO)c2Oc2ccccc2OC)cc1)(C([2H])([2H])[2H])C([2H])([2H])[2H] [Compound 103]

>  <ENDPOINT_UNIT>
min

>  <half-life at 1 μM>
38.2

$$$$

I = [2H]C([2H])([2H])Oc1ccccc1Oc1c(NS(=O)(=O)c2ccc(C(C)(C)C)cc2)nc(-c2ncccn2)nc1OCCO [Compound 102]
II = [2H]C([2H])(O)COc1nc(-c2ncccn2)nc(NS(=O)(=O)c2ccc(C(C)(C)C)cc2)c1Oc1ccccc1OC [Compound 104]
Input: # returns the entry with the larger half-life at 1 μM; inputs I and II Respond with the label that goes with your answer.
Output: I

* * *

Target: CYP3A4 (Homo sapiens)
Construct: purchased BD Gentest
Assay: Metabolic stability in CYP3A4 Supersomes
Type: in vitro ADME
Settings: human, recombinant CYP3A4 Supersomes, pH 7.4, in vitro half-life; 40 pmol/mL CYP3A4 supersomes, 1 μM test compound, 2 mM NADPH, pH 7.4, 37° C., 0-30 minutes; Experiment 2; read-out: t1/2 (minutes) Experiment 2
QUANTITY_NAME: half-life at 1 μM (min)

Some entries whose results are on file:
>  <COMPOUND>
[2H]C([2H])([2H])C(c1ccc(S(=O)(=O)Nc2nc(-c3ncccn3)nc(OCCO)c2Oc2ccccc2OC)cc1)(C([2H])([2H])[2H])C([2H])([2H])[2H]

>  <ENDPOINT_UNIT>
min

>  <half-life at 1 μM>
40.5

$$$$
>  <COMPOUND>
COc1ccccc1Oc1c(NS(=O)(=O)c2ccc(C(C)(C)C)cc2)nc(-c2ncccn2)nc1OCCO [Bosentan, reference compound]

>  <ENDPOINT_UNIT>
min

>  <half-life at 1 μM>
37.2

$$$$
>  <COMPOUND>
[2H]C([2H])([2H])Oc1ccccc1Oc1c(NS(=O)(=O)c2ccc(C(C([2H])([2H])[2H])(C([2H])([2H])[2H])C([2H])([2H])[2H])cc2)nc(-c2ncccn2)nc1OCCO

>  <ENDPOINT_UNIT>
min

>  <half-life at 1 μM>
41.3

$$$$
>  <COMPOUND>
[2H]C([2H])(O)COc1nc(-c2ncccn2)nc(NS(=O)(=O)c2ccc(C(C([2H])([2H])[2H])(C([2H])([2H])[2H])C([2H])([2H])[2H])cc2)c1Oc1ccccc1OC([2H])([2H])[2H]

>  <ENDPOINT_UNIT>
min

>  <half-life at 1 μM>
57.2

$$$$

1 = [2H]C([2H])([2H])Oc1ccccc1Oc1c(NS(=O)(=O)c2ccc(C(C)(C)C)cc2)nc(-c2ncccn2)nc1OCCO
2 = [2H]C([2H])(O)COc1nc(-c2ncccn2)nc(NS(=O)(=O)c2ccc(C(C)(C)C)cc2)c1Oc1ccccc1OC
Input: Form: Entry with minimum half-life at 1 μM (choose one): 1 / 2 Respond with the label that goes with your answer.
Output: 2
